Source listed as ChEMBL document CHEMBL1158267.

test: Toxicity in iv dosed mouse; type: organism-based; details: in vivo
Each entry below carries its reported LD50.

compound	LD50
CCN1C[C@]2(COC(=O)c3ccccc3N3C(=O)CCC3=O)CC[C@H](OC)[C@]34C1[C@](O)([C@@H](OC)[C@H]23)[C@@]1(O)C[C@H](OC)[C@H]2C[C@@H]4[C@@H]1[C@H]2OC	15 mg/kg

Okay, now this compound:
Query: Name the recorded LD50 for "CCN1C[C@]2(COC(=O)c3ccccc3N3C(=O)C[C@H](C)C3=O)CC[C@H](OC)[C@@]34[C@@H]5C[C@H]6[C@H](OC)[C@@H]5[C@](O)(C[C@@H]6OC)[C@](O)([C@@H](OC)[C@H]23)[C@@H]14" .
Result: 3 mg/kg
